Attribute: kinact/KI
TEST SYSTEM: CDK7/cyclinH/MAT1 trimeric complex (Homo sapiens, UniProt P50613)
Sequence (P50613 whole entry): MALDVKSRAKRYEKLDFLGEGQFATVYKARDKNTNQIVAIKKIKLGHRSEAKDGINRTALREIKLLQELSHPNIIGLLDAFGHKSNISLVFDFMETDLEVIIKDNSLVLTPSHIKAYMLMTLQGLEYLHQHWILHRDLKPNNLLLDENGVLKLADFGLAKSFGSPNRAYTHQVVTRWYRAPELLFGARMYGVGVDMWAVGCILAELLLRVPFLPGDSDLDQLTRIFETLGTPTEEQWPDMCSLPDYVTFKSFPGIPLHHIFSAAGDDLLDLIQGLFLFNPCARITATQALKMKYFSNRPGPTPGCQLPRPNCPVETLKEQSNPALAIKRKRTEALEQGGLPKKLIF
Sequence (P51946 whole entry partner): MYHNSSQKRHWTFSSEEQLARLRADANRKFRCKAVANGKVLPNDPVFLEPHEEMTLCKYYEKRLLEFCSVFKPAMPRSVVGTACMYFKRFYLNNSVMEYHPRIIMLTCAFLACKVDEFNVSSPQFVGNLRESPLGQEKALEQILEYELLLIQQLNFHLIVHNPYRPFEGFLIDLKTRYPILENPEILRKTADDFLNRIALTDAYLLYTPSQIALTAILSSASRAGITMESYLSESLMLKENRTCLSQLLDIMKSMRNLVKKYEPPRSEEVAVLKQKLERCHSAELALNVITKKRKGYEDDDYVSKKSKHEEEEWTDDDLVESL
Sequence (P51948 whole entry partner): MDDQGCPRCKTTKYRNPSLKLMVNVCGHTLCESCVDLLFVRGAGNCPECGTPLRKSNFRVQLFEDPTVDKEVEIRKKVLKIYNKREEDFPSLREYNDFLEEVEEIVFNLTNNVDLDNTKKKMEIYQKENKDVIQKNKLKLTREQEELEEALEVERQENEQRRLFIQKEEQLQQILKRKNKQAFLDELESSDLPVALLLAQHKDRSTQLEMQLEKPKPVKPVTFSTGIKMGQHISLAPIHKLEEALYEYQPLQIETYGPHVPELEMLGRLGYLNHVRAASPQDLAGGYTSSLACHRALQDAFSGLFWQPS
TEST SUMMARY: In vitro CDK7 assay, potency of irreversible covalent inhibitors (kinact/KI), coupled PK/LDH ADP readout at 340 nm
RUN PARAMETERS: read-out: CDK7 (20 nM enz.) (kinact/KI, M^−1*s^−1), 20 nM enzyme
Kindly answer with a numeric value in M⁻¹ s⁻¹, unit omitted.

COMPOUND: CC#CC(=O)N1CCC(N2CC(c3cc4c(c(C)n3)OCc3c(N5CCOCC5)ccnc3N4)C2)CC1
kinact/KI (M⁻¹ s⁻¹): 427

COMPOUND: C=CC(=O)N1CC[C@@H](N2CC(c3cc(C#N)c4c(c3)Nc3nccc(N5CCOCC5)c3[C@@H](C)O4)C2)C1 (single isomer, unassigned)
kinact/KI (M⁻¹ s⁻¹): 509

--- query ---
Task: Would you mind telling me what kinact/KI value was observed for `C=CC(=O)N1CCC(N2CC(c3cc4c(c(C)n3)OCc3c(N5CCOCC5)ccnc3N4)C2)CC1` ?
Result: 477

====

Attribute: kinact
TEST SYSTEM: CDK7/cyclinH/MAT1 trimeric complex (Homo sapiens)
TEST SUMMARY: In vitro CDK7 assay, potency of irreversible covalent inhibitors (kinact/KI), coupled PK/LDH ADP readout at 340 nm
RUN PARAMETERS: read-out: CDK7 (20 nM enz.) (kinact, s^−1), 20 nM enzyme
Kindly answer with a numeric value in s⁻¹, unit omitted.

COMPOUND: C=CC(=O)N1CCC(N2CCN(c3ccc4c(c3)Nc3nccc(N5CCOCC5)c3CO4)CC2)CC1
kinact, s⁻¹: 4.7e-05

Task: Would you mind telling me what kinact value was observed for CC#CC(=O)N1CC[C@H](N2CCC(c3cc4c(c(C)n3)OCc3c(N5CCOCC5)ccnc3N4)CC2)C1 (single isomer, unassigned) ?
Result: 5.45e-05

Task: Would you mind telling me what kinact value was observed for C=C(C(=O)N1CC[C@H](N2CCC(c3cc4c(c(C)n3)OCc3c(-c5cnn(C)c5)ccnc3N4)CC2)C1)n1cccn1 (single isomer, unassigned) ?
Result: 3.74e-05

Task: Would you mind telling me what kinact value was observed for `CC#CC(=O)N1CC(n2cc(-c3cc(C)c4c(c3)Nc3nccc(N5CCOCC5)c3CO4)cn2)C1` ?
Result: 2.12e-05

Task: Would you mind telling me what kinact value was observed for C=CC(=O)N1CC(N2CC[C@@H](c3cc4c(c(C)n3)O[C@H](C)c3c(N5CCOCC5)ccnc3N4)C2)C1 (single isomer, unassigned) [Compound 319] ?
Result: 6.15e-05

Task: Would you mind telling me what kinact value was observed for `CC#CC(=O)N1CCC(n2ccc(-c3cc4c(c(C)n3)OCc3c(N5CCOCC5)ccnc3N4)cc2=O)CC1` ?
Result: 4.36e-05

Task: Would you mind telling me what kinact value was observed for C=CC(=O)N1CC(N2CCCN(C)[C@H](c3cc(C)c4c(c3)Nc3nccc(C5CCOCC5)c3CO4)C2)C1 (single isomer, unassigned) ?
Result: 3.55e-05

Task: Would you mind telling me what kinact value was observed for CC#CC(=O)N1CC(N2CC[C@H](c3cc4c(c(C)n3)O[C@@H](C)c3c(N5CCOCC5)ccnc3N4)N(C)CC2)C1 (single isomer, unassigned) ?
Result: 1.7e-05

Task: Would you mind telling me what kinact value was observed for CC#CC(=O)N1CC[C@H](N2CC(c3cc(C)c4c(c3)Nc3nccc(N5CCOCC5)c3[C@@H](C)O4)C2)C1 (single isomer, unassigned) ?
Result: 2.54e-05

====

TEST SYSTEM: CDK7/cyclinH/MAT1 trimeric complex (Homo sapiens)
TEST SUMMARY: In vitro CDK7 assay, potency of irreversible covalent inhibitors (kinact/KI), coupled PK/LDH ADP readout at 340 nm
RUN PARAMETERS: read-out: CDK7 (20 nM enz.) (kinact/KI, M^−1*s^−1), 20 nM enzyme
READOUT LABEL: log10 kinact/KI (log10 of the value in M⁻¹ s⁻¹)
# values: log10(kinact/KI), units M⁻¹ s⁻¹

Reference set, count: 3
COMPOUND: C=CC(=O)N1CCC(n2cc(-c3cc(C)c4c(c3)Nc3nccc(N5CCOCC5)c3CO4)cn2)CC1
READOUT LABEL: log10 kinact/KI
TEST RESULT: 2.68
//
COMPOUND: CC#CC(=O)N1CC(N2CC[C@@H](c3cc4c(c(C)n3)O[C@@H](C)c3c(N5CCOCC5)ccnc3N4)C2)C1 (single isomer, unassigned)
READOUT LABEL: log10 kinact/KI
TEST RESULT: 1.77
//
COMPOUND: C=CC(=O)N1CC(N2CCC(O)(c3ccc4c(c3)Nc3nccc(N5CCOCC5)c3C(C)O4)CC2)C1 (stereo not shown)
READOUT LABEL: log10 kinact/KI
TEST RESULT: 2.64

--- query ---
Task: Would you mind telling me what log10 kinact/KI value was observed for `C=CC(=O)N1CC(N2CC(c3cc4c(c(P(C)(C)=O)n3)OCc3c(N5CCOCC5)ccnc3N4)C2)C1` ?
Result: 2.49

====

TEST SYSTEM: CDK7/cyclinH/MAT1 trimeric complex (Homo sapiens, UniProt P50613)
TEST SUMMARY: In vitro CDK7 assay, potency of irreversible covalent inhibitors (kinact/KI), coupled PK/LDH ADP readout at 340 nm
RUN PARAMETERS: read-out: CDK7 (20 nM enz.) (kinact, s^−1), 20 nM enzyme
READOUT LABEL: kinact (s⁻¹)
Kindly answer with a numeric value in s⁻¹, unit omitted.

COMPOUND: C=CC(=O)N1CC(N2CC(c3cc4c(c(C)n3)O[C@H](C)c3c(N5CCOCC5)ccnc3N4)C2)C1 (single isomer, unassigned)
kinact [s⁻¹]: 3.7e-05

Task: Would you mind telling me what kinact value was observed for `C=CC(=O)N1CC(N2CC(c3cc4c(c(C)n3)OCc3c(-c5cnn(C)c5)ccnc3N4)C2)C1` ?
Result: 4.47e-05

Task: Would you mind telling me what kinact value was observed for CC#CC(=O)N1CC[C@H](N2CC(c3cc(C)c4c(c3)Nc3nccc(C5CCOCC5)c3CO4)C2)C1 (single isomer, unassigned) ?
Result: 2.97e-05

====

TEST SYSTEM: CDK7/cyclinH/MAT1 trimeric complex (Homo sapiens)
TEST SUMMARY: In vitro CDK7 assay, potency of irreversible covalent inhibitors (kinact/KI), coupled PK/LDH ADP readout at 340 nm
RUN PARAMETERS: 20 nM enzyme
READOUT LABEL: CDK7 (20 nM enz.) (kinact/KI, M^−1*s^−1) (M⁻¹ s⁻¹)
Kindly answer with a numeric value in M⁻¹ s⁻¹, unit omitted.

MOLECULE: C=CC(=O)N1CCC(N2CC(c3cc(C)c4c(c3)Nc3nccc(-c5cnn(C)c5)c3CO4)C2)CC1 [Compound 338]
UNIT ANNOTATION: M⁻¹ s⁻¹
CDK7 (20 nM enz.) (kinact/KI, M^−1*s^−1): 299.026
//
MOLECULE: C=CC(=O)N1CC[C@H](N2CC(c3cc4c(c(C5CC5)n3)OCc3c(N5CCOCC5)ccnc3N4)C2)C1 (single isomer, unassigned) [Compound 421]
UNIT ANNOTATION: M⁻¹ s⁻¹
CDK7 (20 nM enz.) (kinact/KI, M^−1*s^−1): 1185.66

Task: Would you mind telling me what CDK7 (20 nM enz.) (kinact/KI, M^−1*s^−1) value was observed for CC#CC(=O)N1CC(N2CCC(c3cc4c(c(C5CC5)n3)O[C@H](C)c3c(N5CCOCC5)ccnc3N4)CC2)C1 (single isomer, unassigned) ?
Result: 20.4314

====

TEST SYSTEM: CDK7/cyclinH/MAT1 trimeric complex (Homo sapiens, UniProt P50613)
TEST SUMMARY: In vitro CDK7 assay, potency of irreversible covalent inhibitors (kinact/KI), coupled PK/LDH ADP readout at 340 nm
RUN PARAMETERS: read-out: CDK7 (20 nM enz.) (kinact, s^−1), 20 nM enzyme
READOUT LABEL: kinact (s⁻¹)
Kindly answer with a numeric value in s⁻¹, unit omitted.

COMPOUND: C=CC(=O)N1CC[C@@H](N2CC(c3cc4c(c(C5CC5)n3)OCc3c(-c5cnn(C)c5)ccnc3N4)C2)C1 (single isomer, unassigned) [Compound 286]
TEST SYSTEM: CDK7/cyclinH/MAT1 trimeric complex (Homo sapiens, UniProt P50613)
kinact [s⁻¹]: 4.74e-05
//
COMPOUND: CC#CC(=O)N1CC(n2cc(-c3cc4c(c(C)n3)O[C@@H](C)c3c(N5CCOCC5)ccnc3N4)cn2)C1 (single isomer, unassigned) [Compound 437]
TEST SYSTEM: CDK7/cyclinH/MAT1 trimeric complex (Homo sapiens, UniProt P50613)
kinact [s⁻¹]: 2.31e-05

Task: Would you mind telling me what kinact value was observed for C=CC(=O)N1CC(N2CCC(c3cc4c(cn3)O[C@H](C)c3c(N5CCOCC5)ccnc3N4)CC2)C1 (single isomer, unassigned) [compound 171] ?
Result: 5.15e-05
